Experiment description: Distribution coefficient, logD of the compound at pH 7.4
Test parameters: octanol/water
Known logD of a selection of molecules
Answer field: number only, no words.

// worked examples, logD included
Molecule | Obs value
C[C@@H]1Cc2c([nH]c3ccccc23)[C@@H](c2c(F)cc(OC3CN(CCCF)C3)cc2F)N1C(=O)C1(F)CCC1 | 4.3
CC(CO)C(=O)N1[C@H](c2c(F)cc(OCCN3CC(CF)C3)cc2F)c2[nH]c3ccccc3c2C[C@H]1C (some centres not stated) | 1.8
C[C@@H]1Cc2c([nH]c3ccccc23)[C@@H](c2c(F)cc(OCCN3CC(CF)C3)cc2F)N1C(=O)C(C)(C)F | 3.2
C[C@@H]1Cc2c([nH]c3ccccc23)[C@@H](c2c(F)cc(OCCN3CC(CF)C3)cc2F)N1C(=O)C1CNC1 | -0.2
C[C@@H]1Cc2c([nH]c3ccccc23)[C@@H](c2ccc(OCCN3CC(CF)C3)cc2)N1S(C)(=O)=O | 2.2

Return reported logD. Input molecule: C[C@@H]1Cc2c([nH]c3ccccc23)[C@@H](c2c(F)cc(OCCN3CC(CF)C3)cc2F)N1C(=O)[C@@H](C)CF
2.5

Input C[C@@H]1Cc2c([nH]c3ccccc23)[C@@H](c2c(F)cc(OCCN3CC(CF)C3)cc2F)N1C(=O)C1CC1 , output reported logD.
2.1

---

Experiment description: Clearance in rat at 1 mg/kg, iv
Type: ADME, organism-based
Test parameters: in vivo
Assay readout: clearance

Record excerpt, results attached:
Molecule | clearance
C[C@@H]1Cc2c([nH]c3ccccc23)[C@@H](c2ccc(OCCN3CC(CF)C3)cc2)N1S(C)(=O)=O | 7 mL/min/kg
C[C@@H]1Cc2c([nH]c3ccccc23)[C@@H](c2c(F)cc(OCCN3CC(CF)C3)cc2F)N1C(=O)C(C)(C)F | 120 mL/min/kg
C[C@@H]1Cc2c([nH]c3ccccc23)[C@@H](c2c(F)cc(OCCN3CC(CF)C3)cc2F)N1S(C)(=O)=O | 27.5 mL/min/kg

Please indicate clearance recorded for C[C@@H]1Cc2c([nH]c3ccccc23)[C@@H](c2ccc(OCCN3CC(CF)C3)cc2F)N1S(C)(=O)=O
10.2 mL/min/kg

Hey, just so you know, these numbers are from ChEMBL document CHEMBL4808242.
